- targetDesc: T1, cynomolgus IL-4Rα HIS FLAG (cynomolgus)
- T1 construct: also called Cyno IL4Rα HIS FLAG; not shown: HIS and FLAG tags and any vector-encoded linker of the cynomolgus HIS FLAG construct
- T1 chain: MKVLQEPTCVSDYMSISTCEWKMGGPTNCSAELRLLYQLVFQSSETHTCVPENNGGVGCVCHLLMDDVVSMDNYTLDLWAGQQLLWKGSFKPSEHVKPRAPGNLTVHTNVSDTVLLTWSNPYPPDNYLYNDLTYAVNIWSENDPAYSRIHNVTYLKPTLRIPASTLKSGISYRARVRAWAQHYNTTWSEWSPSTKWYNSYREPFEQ
- assayExplanation: SPR (BIAcore 2000), IgG captured on Protein G', receptor as analyte, 1:1 Langmuir
quantity: Kd
Please make sure the unit comes right after the number.

Value of Kd reported for the binder Antibody 2 IgG (antibody, V domains shown) VH: QVQLVQSGAEVKKPGASVKVSCKASGYAFTSYYMHWARQAPGQGLEWMGIINPSGGSTSYAQKFQGRVTMTRDTSTSTVYMELSSLRSEDTAVYYCARGKWWLYNWGKGTLVTVSS VL: QSVLTQPPSVSAAPGQKVTISCSGGSSNIGNSYVSWYQQLPGTAPKLLIYDNNKRPSGIPDRFSGSKSGTSATLAITGLQTGDEADYYCGTWDTSQPPNPLFGTGTKLTVL is 47.5 nM
